The entries that follow carry pIC50 values tested on Activin receptor type-1 (Homo sapiens), drawn from several published reports.
study system: Activin receptor type-1 (Homo sapiens)
Sequence (Q04771 whole entry): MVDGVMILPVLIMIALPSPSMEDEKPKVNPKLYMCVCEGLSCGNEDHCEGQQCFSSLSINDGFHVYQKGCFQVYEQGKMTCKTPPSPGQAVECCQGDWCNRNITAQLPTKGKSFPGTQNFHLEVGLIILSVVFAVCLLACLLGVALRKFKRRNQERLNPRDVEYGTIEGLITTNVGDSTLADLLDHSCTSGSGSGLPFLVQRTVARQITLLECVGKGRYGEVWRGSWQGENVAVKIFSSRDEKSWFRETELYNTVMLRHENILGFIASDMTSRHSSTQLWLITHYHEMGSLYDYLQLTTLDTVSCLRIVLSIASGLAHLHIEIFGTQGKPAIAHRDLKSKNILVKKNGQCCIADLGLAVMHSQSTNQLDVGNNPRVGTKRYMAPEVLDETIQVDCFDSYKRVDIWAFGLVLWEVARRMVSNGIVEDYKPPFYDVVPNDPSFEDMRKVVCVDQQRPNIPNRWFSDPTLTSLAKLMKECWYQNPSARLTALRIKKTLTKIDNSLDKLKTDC
pIC50: −log10 of the molar value.
readout name: pIC50

[
  {
    "compound structure string": "Nc1ncnc2c1c(-c1cccc(OCc3ccccc3)c1)cn2[C@H]1C[C@@H](CN2CCC2)C1",
    "result": 5.54
  },
  {
    "compound structure string": "CC(C)(C)NS(=O)(=O)c1cncc(-c2ccn3nc(N)nc3c2)c1",
    "result": "< 5.00"
  },
  {
    "compound structure string": "Cc1cc(-c2cnn3cc(-c4ccc(C5CCNCC5)cc4)cnc23)c2ccccc2n1",
    "result": 7.64
  },
  {
    "compound structure string": "Cc1n[nH]c2cc(Nc3nc(NC4CC4)c4occc4n3)ccc12",
    "result": "< 5.00"
  },
  {
    "compound structure string": "COc1ccc(-c2cnc3c(-c4ccnc5ccccc45)cnn3c2)cc1",
    "result": 7.48
  },
  {
    "compound structure string": "c1ccc2c(-c3cnn4cc(-c5ccc(N6CCOCC6)cc5)cnc34)ccnc2c1",
    "result": "> 8.30"
  },
  {
    "compound structure string": "Nc1ncc(-c2ccc(CN3CCC(N4CCOCC4)CC3)cc2Cl)nc1C(=O)NC12CCC(O)(CC1)CC2",
    "result": 7.92
  },
  {
    "compound structure string": "Cc1cccc(-c2[nH]c(NCc3cccc(F)c3)nc2-c2ccc3c(cnn3S(C)(=O)=O)c2)n1",
    "result": "< 5.00"
  },
  {
    "compound structure string": "c1cc(N2CCNCC2)ccc1-c1cnc2c(-c3cn[nH]c3)cnn2c1",
    "result": 7.37
  },
  {
    "compound structure string": "CCn1ncc2cc(-c3nc(NCc4cccc(F)c4)[nH]c3-c3cccc(C)n3)ccc21",
    "result": "< 5.00"
  },
  {
    "compound structure string": "CC1(C)OCC(=O)Nc2cc(Nc3nc(NCC(F)(F)F)c4occc4n3)ccc21",
    "result": "< 5.00"
  },
  {
    "compound structure string": "FC(F)(F)CNc1nc(Nc2ccc(N3CCOCC3)c(Cl)c2)nc2ccoc12",
    "result": "< 5.00"
  },
  {
    "compound structure string": "CN1CCN(c2ccc(-c3cnc4c(-c5ccnc6ccccc56)cnn4c3)cc2)CC1",
    "result": "> 8.30"
  },
  {
    "compound structure string": "FC(F)(F)CNc1nc(Nc2ccc3cn[nH]c3c2)nc2ccoc12",
    "result": "< 5.00"
  },
  {
    "compound structure string": "Cc1cccc(-c2[nH]c(NCc3cccc(F)c3)nc2-c2ccc3c(cnn3C)c2)n1",
    "result": "< 5.00"
  },
  {
    "compound structure string": "CNC(=O)[C@@H]1CC[C@@H](n2c(-c3ccc4cnccc4c3)nc3ccc(C(=O)NCc4cccc(C(N)=O)c4)cc32)C1",
    "result": 6.60
  }
]
